Biological target: T1, Recombinant P-selectin (R&D Systems) (human, UniProt P16109 42-771)
T1 construct: extracellular domain; also called recombinant human P-selectin; recombinant truncated form of P-selectin
T1 sequence (looked up): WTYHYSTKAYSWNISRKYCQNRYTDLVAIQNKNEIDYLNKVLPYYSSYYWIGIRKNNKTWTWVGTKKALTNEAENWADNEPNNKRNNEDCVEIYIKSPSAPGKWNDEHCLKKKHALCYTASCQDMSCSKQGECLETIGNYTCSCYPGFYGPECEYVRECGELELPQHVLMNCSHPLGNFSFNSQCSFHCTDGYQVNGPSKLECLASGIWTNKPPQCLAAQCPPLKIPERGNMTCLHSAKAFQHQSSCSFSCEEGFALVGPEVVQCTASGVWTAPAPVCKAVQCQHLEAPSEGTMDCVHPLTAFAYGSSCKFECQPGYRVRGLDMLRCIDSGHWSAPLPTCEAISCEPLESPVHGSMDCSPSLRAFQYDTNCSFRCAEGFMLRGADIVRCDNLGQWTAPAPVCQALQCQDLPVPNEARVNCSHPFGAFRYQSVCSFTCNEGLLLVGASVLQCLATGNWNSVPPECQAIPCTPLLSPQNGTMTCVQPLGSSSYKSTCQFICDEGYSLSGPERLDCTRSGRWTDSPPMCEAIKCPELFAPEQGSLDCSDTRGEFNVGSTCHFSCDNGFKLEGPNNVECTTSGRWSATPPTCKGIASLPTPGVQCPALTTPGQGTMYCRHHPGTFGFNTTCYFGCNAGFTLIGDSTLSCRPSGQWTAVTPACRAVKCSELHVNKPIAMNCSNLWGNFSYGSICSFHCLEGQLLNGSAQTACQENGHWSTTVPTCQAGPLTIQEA
Test: SPR, BIACORE 2000; antibody captured by anti-human Fcγ, recombinant P-selectin 0-50 nM injected; 1:1 Langmuir fit
parameter: kon (M⁻¹ s⁻¹)
Your answer should be a plain number; it is taken to be in M⁻¹ s⁻¹.

binder="HuMab 001 (antibody of cell line hu-Mab<P-selectin>LC 1004-001, DSM ACC2640) (antibody, V domains shown, Human monoclonal antibody from transgenic mice; kappa light and gamma1 heavy chains by the cloning section; also called antibody 001; HuMab 1004-001) VH: EVQLVESGGGLVQPGGSLRLSCAASGFTFSSYDMHWVRQATGKGLEWVSGITTAGDTYYPGSVKGRFTISRENAKNSLYLQMNSLRAGDTAVYYCARGRISMDRGVKNNWFDPWGQGTLVTVSS VL: EIVLTQSPATLSLSPGERATLSCRASQSVSSYLAWYQQKPGQAPRLLIYDASNRATGIPARFSGSGSGTDFTLTISSLEPEDFAVYYCQQRNNWPLTFGGGTKVEIK" result=608000

Which kon value is on record for HuMab 003 (antibody, V domains shown, Human monoclonal antibody; also called antibody 003; LC 1004-003) VH: QVQLVESGGGVVQPGRSLRLSCAASGFTFSSYGMHWVRQAPGEGLEWVAVIWYDGTFKYYADSVKGRFTISRDNSKNTLSLLMNSLRAEDTAVYYCTRGGYYGSGSSFDYYYYGMDVWGQGTTVTVSS VL: DIQMTQSPSSLSASVGDRVTITCRASQGISSWLAWYQQKPEKAPKSLIYAASSLQSGVPSRFSGSGSGTDFTLTISSLQPEDFATYYCQQYHSYPLTFGGGTKVEIK ?
660000

Report kon for HuMab 005 (antibody, V domains shown, Human monoclonal antibody; also called antibody 005) VH: QVQLVESGGGVVQPGRSLRLSCAASGFTFSSYGMHWVRQAPGEGLEWVAVIWYDGTFKYYADSVKGRFTISRDNSKNTLSLLMNSLRAEDTAVYYCTRGGYYGSGSSFDYYYYGMDVWGQGTTVTVSS VL: EIVLTQSPATLSLSPGERATLSCRASQSVSSYLAWYQQKPGQAPRLLIYDASNRATGIPARFSGSGSGTDFTLTISSLEPEDFAVYYCQQRSNWPPVTFGQGTRLEIK please.
842000
